substrate: O=C(O)C(=O)O; experiment: purified protein; conditions: pH 4.2 (optimum), 52 mM sodium acetate, 140 mM NaCl, 37 °C, potassium oxalate 0-150 mM, Mn enzyme
Recorded Km by entry
Hey, just the number and the unit after it is fine.

Qu. Request the reported Km associated with Oxalate decarboxylase (OxDC) (Bacillus subtilis subsp. subtilis str. 168) (protein) MKKQNDIPQPIRGDKGATVKIPRNIERDRQNPDMLVPPETDHGTVSNMKFSFSDTHNRLEKGGYAREVTVRELPISENLASVNMRLKPGAIRELHWHKEAEWAYMIYGSARVTIVDEKGRSFIDDVGEGDLWYFPSGLPHSIQALEEGAEFLLVFDDGSFSENSTFQLTDWLAHTPKEVIAANFGVTKEEISNLPGKEKYIFENQLPGSLKDDIVEGPNGEVPYPFTYRLLEQEPIESEGGKVYIADSTNFKVSKTIASALVTVEPGAMRELHWHPNTHEWQYYISGKARMTVFASDGHARTFNYQAGDVGYVPFAMGHYVENIGDEPLVFLEIFKDDHYADVSLNQWLAMLPETFVQAHLDLGKDFTDVLSKEKHPVVKKKCSK
Ans. 7 ± 2 mM

Would you kindly look at the next entry?
Qu. Request the reported Km associated with Oxalate decarboxylase (OxDC) (Bacillus subtilis subsp. subtilis str. 168; Y244R) (protein) MKKQNDIPQPIRGDKGATVKIPRNIERDRQNPDMLVPPETDHGTVSNMKFSFSDTHNRLEKGGYAREVTVRELPISENLASVNMRLKPGAIRELHWHKEAEWAYMIYGSARVTIVDEKGRSFIDDVGEGDLWYFPSGLPHSIQALEEGAEFLLVFDDGSFSENSTFQLTDWLAHTPKEVIAANFGVTKEEISNLPGKEKYIFENQLPGSLKDDIVEGPNGEVPYPFTYRLLEQEPIESEGGKVRIADSTNFKVSKTIASALVTVEPGAMRELHWHPNTHEWQYYISGKARMTVFASDGHARTFNYQAGDVGYVPFAMGHYVENIGDEPLVFLEIFKDDHYADVSLNQWLAMLPETFVQAHLDLGKDFTDVLSKEKHPVVKKKCSK
Ans. 5 ± 1 mM
